# target: T1, cynomolgus monkey glypican-3 (GPC3) (cynomolgus monkey, UniProt A5A6P7 25-554 (Pan troglodytes entry))
# T1 construct: Transiently expressed on CHO-S cells; also called cynoGPC3; CynoGPC3-CHO
# experiment-summary: flow cytometry on CHO-S cells transfected with cynomolgus GPC3;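 also: antibodies incubated 24 h at 4 °C with transiently transfected cells, binding read as AF647 geometric mean fluorescence of live cells, GFP-transfected cells as negative control, Hill-slope specific-binding fit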
For each of the binders below, state its Kd.
Report as a plain number; the unit pM is understood.

Given the binder H18L6_LC_N33E mAb, v40213 (antibody, human IgG1, kappa, V domains shown, M3-H18L6 chains with the stated light chain point mutation, IgG1/kappa) VH: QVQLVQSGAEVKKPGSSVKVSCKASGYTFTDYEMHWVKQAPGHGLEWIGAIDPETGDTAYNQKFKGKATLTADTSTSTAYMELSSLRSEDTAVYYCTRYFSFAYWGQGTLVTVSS VL: EIVLTQSPATLSLSPGERATISCRSSQSLRHSEGNTYLQWYQQKPGQAPRLLIYKVSNRFSGVPARFSGSGSGTDFTLTISSLEPEDFAVYFCYQSKHVPYTFGGGTKVEIKR , what is its reported Kd?
220

Given the binder H18L6_LC_G34Q mAb, v40208 (antibody, human IgG1, kappa, V domains shown, Full-size IgG1/kappa) VH: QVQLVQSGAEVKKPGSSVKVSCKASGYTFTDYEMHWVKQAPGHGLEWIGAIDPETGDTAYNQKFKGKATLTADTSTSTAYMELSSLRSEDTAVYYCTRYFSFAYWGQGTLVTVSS VL: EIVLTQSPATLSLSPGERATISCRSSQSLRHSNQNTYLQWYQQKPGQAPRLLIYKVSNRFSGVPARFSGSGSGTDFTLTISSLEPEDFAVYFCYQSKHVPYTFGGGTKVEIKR , what is its reported Kd?
150

Given the binder H18L6_LC_G34T mAb, v40209 (antibody, human IgG1, kappa, V domains shown, M3-H18L6 chains with the stated light chain point mutation, IgG1/kappa) VH: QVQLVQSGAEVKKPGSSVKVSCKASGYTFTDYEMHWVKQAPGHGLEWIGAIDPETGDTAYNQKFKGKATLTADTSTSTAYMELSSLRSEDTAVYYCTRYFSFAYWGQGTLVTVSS VL: EIVLTQSPATLSLSPGERATISCRSSQSLRHSNTNTYLQWYQQKPGQAPRLLIYKVSNRFSGVPARFSGSGSGTDFTLTISSLEPEDFAVYFCYQSKHVPYTFGGGTKVEIKR , what is its reported Kd?
140

Given the binder H18L6_LC_G34A mAb, v40212 (antibody, human IgG1, kappa, V domains shown, M3-H18L6 chains with the stated light chain point mutation, IgG1/kappa) VH: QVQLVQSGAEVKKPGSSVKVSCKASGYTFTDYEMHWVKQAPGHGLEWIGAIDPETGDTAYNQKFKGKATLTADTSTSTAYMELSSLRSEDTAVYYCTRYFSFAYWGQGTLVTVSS VL: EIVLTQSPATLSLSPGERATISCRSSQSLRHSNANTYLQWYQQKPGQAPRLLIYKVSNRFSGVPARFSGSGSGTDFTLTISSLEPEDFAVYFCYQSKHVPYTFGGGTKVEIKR , what is its reported Kd?
250
